- Tested on: BxPC-3
- procedure text: Pancreatic cancer cell line viability, single agent or 1:1 combination (CTG 120h), Example 10
- Assay type: cell-based
- experimental context: Homo sapiens, BXPC-3, 120 h, BxPC-3, CTG 120 h, mean
property label: IC50 (nM)
Dear colleague, please return just the value in nM, with no unit written.

Solved cases below.
{"smiles string": "Nc1ccn([C@@H]2O[C@H](CO)[C@@H](O)C2(F)F)c(=O)n1", "tested on": "BxPC-3", "quantitative result": 13}
{"smiles string": "Cc1c(Nc2nc3ccccc3s2)nnc2c1CCCN2c1ccc(-c2cnn(C[C@]34C[C@]5(C)C[C@](C)(C3)C[C@@](OCCNCCCO)(C5)C4)c2C)c(C(=O)O)n1", "tested on": "BxPC-3", "quantitative result": 21800}
{"smiles string": "CC(=O)Nc1cccc(-n2c(=O)n(C3CC3)c(=O)c3c(Nc4ccc(I)cc4F)n(C)c(=O)c(C)c32)c1", "tested on": "BxPC-3", "quantitative result": 11.7}

Proceed to the following item.
Exam item: Please report the measured IC50 for CC(=O)O[C@H]1C(=O)[C@@]2(C)[C@H]([C@H](OC(=O)c3ccccc3)[C@]3(O)C[C@H](OC(=O)[C@H](O)[C@@H](NC(=O)c4ccccc4)c4ccccc4)C(C)=C1C3(C)C)[C@]1(OC(C)=O)CO[C@@H]1C[C@@H]2O
Marked response: 0.93

Taken from patent US20250339547A1.
